Test system: KM20L2 colon
measurementProtocol: NCI tumour cell line growth inhibition, 48 h
assayEndpoint: TGI

### Prompt What does the data say about its TGI? Entry: `Cn1cc(NC(=O)c2cc(NC(=O)CCCCCC(=O)Nc3cc(C(=O)Nc4cc(C(=O)NCCC(=N)N)n(C)c4)n(C)c3)cn2C)cc1C(=O)NCCC(=N)N`
### Response > 100 µM

### Prompt What does the data say about its TGI? Entry: Nc1nc(N)c2ncn(CC(CO)CC(c3ccccc3)P(=O)(O)O)c2n1 (stereo not drawn)
### Response > 100 µM

### Prompt What does the data say about its TGI? Entry: `COc1ccc(N=Cc2ccc(N(CCC#N)CCC#N)cc2)cc1`
### Response > 100 µM

----------
Test system: MOLT-4 leukemia
measurementProtocol: NCI tumour cell line growth inhibition, 48 h
Assign TGI to each entry below.

### Prompt Item `OCCCNCc1ccccn1` with MOLT-4 leukemia - TGI?
### Response > 100 µM

### Prompt Item CC(NCCS(=O)(=O)O)C(=O)O (stereo unspecified) with MOLT-4 leukemia - TGI?
### Response > 100 µM

### Prompt Item S=C1CC(c2ccc(Cl)cc2)Sc2ccccc2N1 (stereo unspecified) with MOLT-4 leukemia - TGI?
### Response > 10 µM

### Prompt Item `CC(=O)O[C@H]1/C(=C/c2ccc(N(C)C)cc2)C[C@H]2[C@@H]3CC=C4C[C@@H](N5CCCC5)CC[C@]4(C)[C@H]3CC[C@]12C` with MOLT-4 leukemia - TGI?
### Response > 100 µM

### Prompt Item `CC1=Nn2c(nc3sc4c(c3c2=O)CCCC4)SC1` with MOLT-4 leukemia - TGI?
### Response > 94.6 µM

### Prompt Item `COc1cc2ccc3c4cc(OC)c(OCc5ccccc5)cc4cnc3c2cc1OC` with MOLT-4 leukemia - TGI?
### Response > 100 µM

### Prompt Item `COC(=O)c1ccc(OCc2ccc3oc(=O)c(-c4ccccc4)nc3c2)cc1` with MOLT-4 leukemia - TGI?
### Response > 100 µM

### Prompt Item `CCCCc1cc(O)ccc1O` with MOLT-4 leukemia - TGI?
### Response > 100 µM

### Prompt Item COc1cc(C(C#N)NNC(=O)c2ccccc2O)ccc1O (stereo unspecified) with MOLT-4 leukemia - TGI?
### Response > 100 µM

### Prompt Item CCN(CC)C(=O)CCCCCCCCC1CO1 (stereo unspecified) with MOLT-4 leukemia - TGI?
### Response > 100 µM

### Prompt Item `CN(C)c1ccc(C(c2ccc(N(C)C)cc2)c2ccc([N+](=O)[O-])cc2)cc1` with MOLT-4 leukemia - TGI?
### Response > 100 µM

----------
System: SNB-19 CNS
measurementProtocol: NCI tumour cell line growth inhibition, 48 h
Where a SMILES comes first, the peptide text is derived from it. The star is where a group is joined. Boc = CC(C)(C)OC(=O)*
assayEndpoint: TGI

### Prompt Item COC(=O)C12C3C4C1C1C2C3C41I (centres undefined) with SNB-19 CNS - TGI?
### Response > 100 µM

### Prompt Item `Clc1ccc(-c2nc(-c3ccc(Cl)cc3)[s+]s2)cc1` with SNB-19 CNS - TGI?
### Response > 100 µM

### Prompt Item `CC1=CC[C@@H]2C(C)(C)[C@@H](O)CC[C@@]2(C)[C@@H]1COc1ccc2ccc(=O)oc2c1` with SNB-19 CNS - TGI?
### Response 42.9 µM

### Prompt Item CCN(CC)C(=O)CCCCCCCCC1CO1 (centres undefined) with SNB-19 CNS - TGI?
### Response > 100 µM

### Prompt Item CCCCS(=N)(=O)CC[C@H](N)C(=O)O (some centres undefined) with SNB-19 CNS - TGI?
### Response > 10000 µM

### Prompt Item CC(NC(=O)C(NC(=O)OC(C)(C)C)C(C)C)C(=O)NCC(=O)O (stereo not drawn) (Boc-Val-Ala-Gly-OH; configuration not given here) with SNB-19 CNS - TGI?
### Response > 100 µM

### Prompt Item `Cc1ccc(-c2cc3nc(-c4ccccc4)nc(C(Cl)Cl)n3n2)cc1` with SNB-19 CNS - TGI?
### Response 1.73 µM

### Prompt Item `COc1ccc2c(c1)CC[C@@H]1[C@@H]2CC[C@]2(C)/C(=N/OCCN3CCCCC3)CC[C@@H]12` with SNB-19 CNS - TGI?
### Response 21 µM

### Prompt Item `O=[N+]([O-])C(=C(NCc1ccccc1)NCc1ccccc1)C(Cl)=C(Cl)Cl` with SNB-19 CNS - TGI?
### Response > 100 µM

----------
System: SW-620 colon
measurementProtocol: NCI tumour cell line growth inhibition, 48 h
assayEndpoint: TGI

### Prompt What does the data say about its TGI? Entry: `O=C1c2cccc3cc([N+](=O)[O-])cc(c23)C(=O)N1CCCN1CCN(CCCN2C(=O)c3cccc4cc([N+](=O)[O-])cc(c34)C2=O)CC1`
### Response > 100 µM

### Prompt What does the data say about its TGI? Entry: Nc1nc(N)c2ncn(CC(CO)CC(c3ccccc3)P(=O)(O)O)c2n1 (centres undefined)
### Response > 100 µM

### Prompt What does the data say about its TGI? Entry: `Cc1c2ncccc2c(C)c2c1[nH]c1ccccc12`
### Response 28 µM

### Prompt What does the data say about its TGI? Entry: `CN(C)CCNc1cccc2sc3ccc(O)cc3c(=O)c12`
### Response 3.44 µM

----------
Assign TGI to each entry below.
Test system: SK-MEL-28 melanoma
measurementProtocol: NCI tumour cell line growth inhibition, 48 h

### Prompt What does the data say about its TGI? Entry: `N#C/C(=C(\O)C(=O)O)c1ccc(-c2cccc3ccccc23)cc1`
### Response > 100 µM

### Prompt What does the data say about its TGI? Entry: `O=C1Cc2c(-c3ccccc3)cc(-c3cccc(Cl)c3)nc2-c2ccccc2N1`
### Response 25.8 µM

### Prompt What does the data say about its TGI? Entry: O=C(O)C(Cc1ccc(O)c([N+](=O)[O-])c1)N1C(=O)c2ccccc2C1=O (stereo unspecified)
### Response > 100 µM

### Prompt What does the data say about its TGI? Entry: COc1cccc2c1C1=CC(=O)CCC1C(C)(C)O2 (stereo unspecified)
### Response > 100 µM

### Prompt What does the data say about its TGI? Entry: `O=[N+]([O-])/C=C\c1ccc2c(c1)OCO2`
### Response 16.4 µM

### Prompt What does the data say about its TGI? Entry: `CCCCCCCCOCC1S(=O)(=O)OCCOS1(=O)=O`
### Response > 100 µM

### Prompt What does the data say about its TGI? Entry: `CCOC(=O)/C=C(/C(=O)OCC)n1cc(C)c(=O)n(Cc2cnnn2CCCCOC(C)=O)c1=O`
### Response > 100 µM

### Prompt What does the data say about its TGI? Entry: `CN(C)Cc1cc(C(=O)/C=C/c2ccc(/C=C/C(=O)c3cc(CN(C)C)c(O)c(CN(C)C)c3)cc2)cc(CN(C)C)c1O`
### Response > 100 µM

### Prompt What does the data say about its TGI? Entry: `NS(=O)(=O)c1ccc(/C=C/c2cccc(O)c2)cc1`
### Response > 100 µM

### Prompt What does the data say about its TGI? Entry: `COc1ccc(CN=CN/C(C#N)=C(\N)C#N)cc1OC`
### Response > 100 µM

### Prompt What does the data say about its TGI? Entry: `O=C(Nc1ccc(Br)cc1)c1cc(Br)cc(Br)c1O`
### Response 31.4 µM

----------
Test system: SR leukemia
measurementProtocol: NCI tumour cell line growth inhibition, 48 h
assayEndpoint: TGI

### Prompt What does the data say about its TGI? Entry: Cc1ccc(S(=O)(=O)ON/N=C2/C3OC3[C@@H]3CCCC[C@H]23)cc1 (stereo not given in full)
### Response > 100 µM

### Prompt What does the data say about its TGI? Entry: C/C(=C\CCC1=CC(=O)OC1)CC[C@@H]1[C@H]2C(=O)CC(C)[C@@]3(C)CC[C@]1(C)[C@@]23C (stereo not given in full)
### Response > 10 µM

### Prompt What does the data say about its TGI? Entry: COC(=O)CC1C2CC3C(C2=O)C13 (stereo not given)
### Response > 100 µM

### Prompt What does the data say about its TGI? Entry: `CN(C)c1ccc(/C=C2\N=C(c3ccccc3)N(c3nc4c(Cl)cc(Cl)cc4s3)C2=O)cc1`
### Response > 100 µM

### Prompt What does the data say about its TGI? Entry: `COc1ccc(CNc2nc3ccccc3nc2-c2cccs2)cc1`
### Response > 100 µM

### Prompt What does the data say about its TGI? Entry: CC1(C)OC2C(=O)OC(COCc3ccccc3)C2O1 (stereo not given)
### Response > 100 µM

### Prompt What does the data say about its TGI? Entry: O=C1CC(c2cccc(Cl)c2)n2cccc21 (stereo not given)
### Response > 100 µM

### Prompt What does the data say about its TGI? Entry: `O=C1/C(=C\c2cccs2)Oc2ccccc21`
### Response > 100 µM

### Prompt What does the data say about its TGI? Entry: COc1cc(C2c3cc4c(cc3OC(N3CCOCC3)C2C)OCO4)cc(OC)c1O (stereo not given)
### Response > 35.1 µM

### Prompt What does the data say about its TGI? Entry: `CC(=O)O[C@H]1/C(=C/c2ccc(N(C)C)cc2)C[C@H]2[C@@H]3CC=C4C[C@@H](N5CCCC5)CC[C@]4(C)[C@H]3CC[C@]12C`
### Response > 100 µM

### Prompt What does the data say about its TGI? Entry: `CC1(C)C(=O)/C(=C\c2ccco2)C[C@]2(C)[C@H]3CC=C4[C@@H]5C[C@](C)(C(=O)O)CC[C@]5(C)CC[C@@]4(C)[C@]3(C)CC[C@@H]12`
### Response > 100 µM

### Prompt What does the data say about its TGI? Entry: `CN(C)CN1C(=O)S/C(=C2\C(=O)N(CN(C)C)c3ccccc32)C1=O`
### Response 45.3 µM

### Prompt What does the data say about its TGI? Entry: `COC(=O)c1ccc2c(c1)c1c(C)c3cnccc3c(C)c1n2C`
### Response 2.04 µM

### Prompt What does the data say about its TGI? Entry: `COc1ccc2c(c1)CC[C@@H]1[C@@H]2CC[C@]2(C)/C(=N/OCCN3CCCCC3)CC[C@@H]12`
### Response 6.29 µM

### Prompt What does the data say about its TGI? Entry: Nc1nc(N)c2ncn(CC(CO)CC(c3ccccc3)P(=O)(O)O)c2n1 (stereo not given)
### Response > 100 µM

### Prompt What does the data say about its TGI? Entry: `c1cc2c(cnc3cscc32)s1`
### Response > 100 µM

### Prompt What does the data say about its TGI? Entry: `CC1=CC[C@@H]2C(C)(C)[C@@H](O)CC[C@@]2(C)[C@@H]1COc1ccc2ccc(=O)oc2c1`
### Response 42 µM

### Prompt What does the data say about its TGI? Entry: `Cc1nc2c(Br)cc(Br)cc2c(=O)n1-c1ccccc1N`
### Response > 100 µM

### Prompt What does the data say about its TGI? Entry: `CCC(=O)N1C/C(=C/c2ccc(OC)cc2)C(=O)/C(=C/c2ccc(OC)cc2)C1`
### Response > 100 µM

### Prompt What does the data say about its TGI? Entry: `COC(=O)c1c(O)ccc2c1c1c(n2C)C(=O)c2ccccc2C1=O`
### Response > 100 µM
